Where these numbers come from: patent US8796268B2

Answer each item with its documented inhibition at 1 µM.
Target: Human PI3K gamma (Homo sapiens, UniProt P48736)
Construct: His (N); host or cells: SF9 insect cells (baculovirus)
Sequence (P48736 whole entry): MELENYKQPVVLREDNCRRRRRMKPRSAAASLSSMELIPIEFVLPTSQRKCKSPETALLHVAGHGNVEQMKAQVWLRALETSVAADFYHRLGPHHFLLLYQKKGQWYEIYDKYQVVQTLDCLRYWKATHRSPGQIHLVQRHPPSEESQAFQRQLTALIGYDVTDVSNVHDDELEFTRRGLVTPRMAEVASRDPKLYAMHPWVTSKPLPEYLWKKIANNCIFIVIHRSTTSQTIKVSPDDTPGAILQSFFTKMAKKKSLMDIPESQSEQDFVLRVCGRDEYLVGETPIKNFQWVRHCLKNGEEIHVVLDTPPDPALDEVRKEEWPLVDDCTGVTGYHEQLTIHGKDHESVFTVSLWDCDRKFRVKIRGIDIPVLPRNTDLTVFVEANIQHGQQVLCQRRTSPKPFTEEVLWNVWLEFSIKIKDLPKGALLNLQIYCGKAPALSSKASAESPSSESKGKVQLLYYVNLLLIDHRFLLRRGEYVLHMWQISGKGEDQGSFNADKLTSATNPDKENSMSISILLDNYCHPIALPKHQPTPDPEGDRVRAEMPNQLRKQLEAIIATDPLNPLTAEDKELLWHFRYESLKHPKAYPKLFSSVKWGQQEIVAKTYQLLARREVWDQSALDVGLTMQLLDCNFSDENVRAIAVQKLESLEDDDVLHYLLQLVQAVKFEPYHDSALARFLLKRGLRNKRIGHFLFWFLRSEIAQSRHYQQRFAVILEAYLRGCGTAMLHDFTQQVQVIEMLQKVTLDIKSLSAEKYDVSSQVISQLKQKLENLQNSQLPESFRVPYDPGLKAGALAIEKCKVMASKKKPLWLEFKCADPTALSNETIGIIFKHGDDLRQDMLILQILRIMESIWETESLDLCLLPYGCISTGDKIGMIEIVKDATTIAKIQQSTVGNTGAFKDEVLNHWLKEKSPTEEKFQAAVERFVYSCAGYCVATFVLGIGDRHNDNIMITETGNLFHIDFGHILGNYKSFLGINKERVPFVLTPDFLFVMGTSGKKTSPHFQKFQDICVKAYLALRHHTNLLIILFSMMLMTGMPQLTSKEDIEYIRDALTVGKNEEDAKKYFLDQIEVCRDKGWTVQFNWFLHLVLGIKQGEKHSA
Test: Human PI3K gamma enzyme assay (HTRF)
Assay type: biochemical
Details: concentration not given; b1389 states 1.0 μM for PI3K δ and γ; read-out: p110 gamma Percent Inhibition
Dear colleague, please return just the value in %, with no unit written.

Sample `Nc1nccc(-c2sc(-c3ccncc3)nc2Cc2ccc(Cl)cc2)n1` — what was its inhibition at 1 µM?
6

Sample OC(c1nc(-c2ccccc2)cs1)c1cc(-c2ccncc2)sc1-c1nnc[nH]1 (stereo not shown) — what was its inhibition at 1 µM?
26

Sample OC(c1cc(-c2ccncc2)sc1-c1nnc[nH]1)c1cccc2ccccc12 (stereo not shown) — what was its inhibition at 1 µM?
11

Sample `CC(=O)Nc1cc(-c2nc(Cc3ccc4ccccc4c3)c(-c3nnc[nH]3)s2)ccn1` — what was its inhibition at 1 µM?
35

Sample OC(c1cccc(C(F)(F)F)c1)c1cc(-c2ccncc2)sc1-c1nnc[nH]1 (stereo not shown) — what was its inhibition at 1 µM?
5

Sample CC(=O)Nc1cc(-c2cc(C(c3ccc(Cl)cc3)N3CCC3)c(-c3nnc[nH]3)s2)ccn1 (stereo not shown) — what was its inhibition at 1 µM?
17

Sample `O=C(O)c1sc(N2CCOCC2)nc1Cc1ccc2cc[nH]c2c1` — what was its inhibition at 1 µM?
48

Sample `N#Cc1c(N2CCOCC2)sc(-c2nnn[nH]2)c1Cc1ccc2ccccc2c1` — what was its inhibition at 1 µM?
62

Sample CC(=O)Nc1cc(-c2cc(C(c3ccc(Cl)cc3)N3CCC[C@@H]3CO)c(-c3nnc[nH]3)s2)ccn1 (stereo partly shown) — what was its inhibition at 1 µM?
16

Sample COCC(c1ccc2ccccc2c1)c1c(C(=O)O)sc(N2CCOCC2)c1C#N (stereo not shown) — what was its inhibition at 1 µM?
51

Sample COc1ccc(C(O)c2cc(-c3ccncc3)sc2-c2nnc[nH]2)c(C)c1 (stereo not shown) — what was its inhibition at 1 µM?
20

Sample CC(=O)Nc1cc(-c2cc(C(c3ccc(Cl)cc3)N3CC(N(C)C)C3)c(-c3nnc[nH]3)s2)ccn1 (stereo not shown) — what was its inhibition at 1 µM?
19

Sample CC(=O)Nc1cc(-c2cc(C(c3ccc(Cl)cc3)n3ccnc3)c(-c3nnc[nH]3)s2)ccn1 (stereo not shown) — what was its inhibition at 1 µM?
26

Sample CC(=O)Nc1cc(-c2cc(C(c3ccc(Cl)cc3)N3CCOCC3)c(-c3nnc[nH]3)s2)ccn1 (stereo not shown) — what was its inhibition at 1 µM?
35

Sample OC(c1cccc(-c2ccncc2)c1)c1cc(-c2ccncc2)sc1-c1nnc[nH]1 (stereo not shown) — what was its inhibition at 1 µM?
13

Sample CC(=O)Nc1cc(-c2cc(C(c3ccc(Cl)cc3)N3CCCC3)c(-c3nnc[nH]3)s2)ccn1 (stereo not shown) — what was its inhibition at 1 µM?
29
